B1: FBXO3 (parent)
chain: GGFPIIRDQIFRYVHDPECVATTG

Variants of: B1
ASSAY: protein stability index of a GFP-peptide fusion (GPS, HEK-293T) (PSI 1-6); higher = more stable;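 further: lentivirally expressed fusions sorted by FACS into six bins by GFP to DsRed ratio, PSI derived from sequencing read proportions per bin multiplied by bin number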
MEASUREMENT CONDITIONS: c terminus: a fixed tail appended
For each record, write down the corresponding protein stability index.
A bare number is all that is needed in reply.

I am curious: what protein stability index value has been reported for T23K ?
2.03

I am curious: what protein stability index value has been reported for G2F ?
2.03

I am curious: what protein stability index value has been reported for G24K ?
1.96

I am curious: what protein stability index value has been reported for G2E ?
1.97

Ref: the supplement of paper PMC10567573
